Where do the numbers come from? From patent US11819532B2.

# test: Single dose pharmacokinetic study in male rats
# conditionLabel: rat, plasma, intravenous bolus dose of 6 mg/kg, read-out: rat clearance, observed in vivo
# clearance listing for each entry below

compound: CN1C(=O)[C@H](CCCCN)NC(=O)[C@H](CCCN)NCc2cccnc2Sc2cccc(-c3ccc(C(=O)O)cc3)c2CNC(=O)[C@@H]1Cc1c[nH]c2ccccc12 [Example 1.00]
clearance (mL/min/kg): 14.3
--
compound: CN1C(=O)[C@H](CCCCN)NC(=O)[C@H](CCCN)NCc2cccnc2Sc2c(Cl)ccc(-c3ccc(C(=O)O)cc3)c2CNC(=O)[C@@H]1Cc1c[nH]c2ccccc12 [drawing 99, reference compound]
clearance (mL/min/kg): 23.5
